system: sicklepod (Cassia obtusifolia, CASOB); assay: Pre-emerge test, greenhouse herbicide activity screening; type: in vivo; conditions: pre-emerge, rate 250 g ai/ha, phytotoxicity rating 0-100 at 14 days after application
PROPERTY_LABEL: Pre-emerge Herbicidal Activity CASOB
Hey, just send me the number, nothing else.

Solved entries:
Using the record for C=Cc1ccc(C(=O)Nc2c(OC)c(Cl)cc(F)c2N2C(=O)C3=C(CCCC3)C2=O)cc1 [8-30] , report its Pre-emerge Herbicidal Activity CASOB.
20

Using the record for Cc1c(Cl)cc(F)c(-n2c(=O)cc(C(F)(F)F)n(C)c2=O)c1NC(=O)OCc1ccco1 [4-70] , report its Pre-emerge Herbicidal Activity CASOB.
80

Using the record for COc1c(Cl)cc(F)c(-n2c(=O)n3n(c2=O)CCCC3)c1NC(=O)c1ccc(F)cc1F [9-16] , report its Pre-emerge Herbicidal Activity CASOB.
60

Moving on to another compound below.
Using the record for COc1c(Cl)cc(F)c(N2C(=O)C3=C(CCCC3)C2=O)c1NC(=O)C=Cc1ccccc1 [8-31] , report its Pre-emerge Herbicidal Activity CASOB.
20

---

Recorded measurements of phytotoxicity rating DIGSA, one per entry
system: large crabgrass (Digitaria sanguinalis, DIGSA); test: Pre-emerge test, greenhouse herbicide activity screening; assay type: in vivo; details: pre-emerge, 250 g ai/ha, 14 days after application, rating scale 0-100
Hey, just send me the number, nothing else.

Solved entries:
Using the record for `Cn1c(C(F)(F)F)cc(=O)n(-c2ccc(Cl)cc2/C=C/c2ccc3ccccc3c2)c1=O` , report its phytotoxicity rating DIGSA.
0

Using the record for `COc1c(Cl)cc(F)c(-n2c(=O)cc(C(F)(F)F)n(C)c2=O)c1NNC(=O)Nc1ccc(F)cc1F` , report its phytotoxicity rating DIGSA.
100

Using the record for CCOC(=O)C(Cl)Cc1c(OC)c(Cl)cc(F)c1-n1nc(C(F)(F)F)n(C)c1=O (centres unmarked) , report its phytotoxicity rating DIGSA.
40

Using the record for `COc1c(Cl)cc(F)c(-n2c(=O)cc(C(F)(F)F)n(C)c2=O)c1OC(=O)c1ccc2ccccc2c1` , report its phytotoxicity rating DIGSA.
0

Using the record for COc1c(Cl)cc(F)c(-n2c(=O)cc(C(F)(F)F)n(C)c2=O)c1NN=CC(C)c1ccccc1 (centres unmarked) , report its phytotoxicity rating DIGSA.
100

Using the record for `COc1c(Cl)cc(F)c(-n2c(=O)cc(C(F)(F)F)n(C)c2=O)c1SCCO` , report its phytotoxicity rating DIGSA.
60

Using the record for CCCOC(=O)C(Cl)Cc1c(OCC)c(Cl)cc(F)c1-n1c(=O)cc(C(F)(F)F)n(C)c1=O (centres unmarked) , report its phytotoxicity rating DIGSA.
100

Using the record for `CCOc1c(Cl)cc(F)c(-n2c(=O)cc(C(F)(F)F)n(C)c2=O)c1Cl` , report its phytotoxicity rating DIGSA.
50

Using the record for `CCOC(=O)NNc1c(OC)c(Cl)cc(F)c1-n1c(=O)cc(C(F)(F)F)n(C)c1=O` , report its phytotoxicity rating DIGSA.
100

Using the record for `COc1c(Cl)cc(F)c(-n2c(=O)cc(C(F)(F)F)n(C)c2=O)c1NN` , report its phytotoxicity rating DIGSA.
100

***
Using the record for CCOC(=O)C(Cl)(CC(=O)OC)Cc1c(OC)c(Cl)cc(F)c1-n1c(=O)cc(C(F)(F)F)n(C)c1=O (centres unmarked) , report its phytotoxicity rating DIGSA.
40

Using the record for `C=CC=NNc1c(OC)c(Cl)cc(F)c1-n1c(=O)cc(C(F)(F)F)n(C)c1=O` , report its phytotoxicity rating DIGSA.
100

Using the record for `COc1c(Cl)cc(F)c(-n2c(=O)cc(C(F)(F)F)n(C)c2=O)c1O` , report its phytotoxicity rating DIGSA.
70

Using the record for `COc1c(Cl)cc(F)c(-n2c(=O)cc(C(F)(F)F)n(C)c2=O)c1NN=Cc1ccc(F)cc1F` , report its phytotoxicity rating DIGSA.
100

---

Recorded measurements of Pre-emerge Herbicidal Activity CHEAL, one per entry
system: lambsquarters (Chenopodium album, CHEAL); assay: Pre-emerge test, greenhouse herbicide activity screening; type: in vivo; settings: 63 g ai/ha; phytotoxicity rating 0-100, 14 days after application
Hey, just send me the number, nothing else.

Solved entries:
Using the record for COc1c(Cl)cc(F)c(-n2c(=O)cc(C(F)(F)F)n(C)c2=O)c1NC(=O)C1CC1 [2-206] , report its Pre-emerge Herbicidal Activity CHEAL.
50

Using the record for COc1c(Cl)cc(F)c(-n2c(=O)cc(C(F)(F)F)n(C)c2=O)c1NC(=O)OCc1ccc(F)c(F)c1 [4-30] , report its Pre-emerge Herbicidal Activity CHEAL.
100

Using the record for Cc1c(Cl)cc(F)c(-n2c(=O)cc(C(F)(F)F)n(C)c2=O)c1NC(=O)OCc1ccccc1Cl [4-54] , report its Pre-emerge Herbicidal Activity CHEAL.
90

Using the record for COc1c(Cl)cc(F)c(-n2c(=O)cc(C(F)(F)F)n(C)c2=O)c1NC(=O)OCc1ccc(C(C)C)cc1 [4-42] , report its Pre-emerge Herbicidal Activity CHEAL.
40

Using the record for COc1c(Cl)ccc(-n2c(=O)cc(C(F)(F)F)n(C)c2=O)c1NC(=O)c1ccc2ccccc2c1 [2-202] , report its Pre-emerge Herbicidal Activity CHEAL.
100

***
Using the record for COc1c(Cl)cc(F)c(-n2c(=O)cc(C(F)(F)F)n(C)c2=O)c1NC(=O)OCc1c(F)c(F)c(F)c(F)c1F [4-48] , report its Pre-emerge Herbicidal Activity CHEAL.
100

Using the record for Cc1ccc(OC(=O)Nc2c(C)c(Cl)cc(F)c2-n2c(=O)cc(C(F)(F)F)n(C)c2=O)cc1C [4-53] , report its Pre-emerge Herbicidal Activity CHEAL.
100

Using the record for COc1c(Cl)cc(F)c(-n2c(=O)cc(C(F)(F)F)n(C)c2=O)c1NC(=O)OC(c1ccccc1)C1CC1 (stereo not shown) [4-46] , report its Pre-emerge Herbicidal Activity CHEAL.
100

Using the record for COc1c(Cl)cc(F)c(-n2c(=O)cc(C(F)(F)F)n(C)c2=O)c1NC(=O)Nc1ccccc1 [Compound 3-4] , report its Pre-emerge Herbicidal Activity CHEAL.
0

Using the record for Cn1c(C(F)(F)F)cc(=O)n(-c2c(F)cc(Cl)c(O)c2NC(=O)c2ccc3ccccc3c2)c1=O [Compound 2-194] , report its Pre-emerge Herbicidal Activity CHEAL.
40

---

Recorded measurements of Pre-emerge Herbicidal Activity CASOB, one per entry
test system: sicklepod (Cassia obtusifolia, CASOB); experiment: Pre-emerge test, greenhouse herbicide activity screening; format: in vivo; conditions: 250 g ai/ha; phytotoxicity rating 0-100, 14 days after application
Hey, just send me the number, nothing else.

Using the record for `COc1c(Cl)cc(F)c(-n2c(=O)cc(C(F)(F)F)n(C)c2=O)c1NC(=O)OCc1cc(C)ccc1C` , report its Pre-emerge Herbicidal Activity CASOB.
60

Using the record for `COc1c(Cl)cc(F)c(-n2c(=O)cc(C(F)(F)F)n(C)c2=O)c1NC(=O)OCc1c(Cl)cccc1Cl` , report its Pre-emerge Herbicidal Activity CASOB.
80

Using the record for `CCCCCC(=O)Nc1c(OC)c(Cl)cc(F)c1-n1c(=O)cc(C(F)(F)F)n(C)c1=O` , report its Pre-emerge Herbicidal Activity CASOB.
100

Using the record for `N#CCOc1c(Cl)cc(F)c(-n2c(=O)cc(C(F)(F)F)n(N)c2=O)c1NC(=O)c1ccc2ccccc2c1` , report its Pre-emerge Herbicidal Activity CASOB.
0

Using the record for `Cn1c(C(F)(F)F)cc(=O)n(-c2ccc(Cl)cc2NC(=O)OCc2ccccc2F)c1=O` , report its Pre-emerge Herbicidal Activity CASOB.
60

Using the record for `COC(=O)N(C(=O)OC)c1c(OC)c(Cl)cc(F)c1-n1c(=O)cc(C(F)(F)F)n(C)c1=O` , report its Pre-emerge Herbicidal Activity CASOB.
80

Moving on to another compound below.
Using the record for `Cc1ccc(OC(=O)Nc2c(C)c(Cl)cc(F)c2-n2c(=O)cc(C(F)(F)F)n(C)c2=O)cc1C` , report its Pre-emerge Herbicidal Activity CASOB.
60

---

system: field corn (Zea mays L., var. Dekalb 535, CORN); experiment: Pre-emerge test, crop safety; type: in vivo; details: 250 g ai/ha; crop damage rating 0-100, 14 days after application
PROPERTY_LABEL: Pre-emerge Herbicidal Activity CORN
Hey, just send me the number, nothing else.

Solved entries:
Using the record for `COC(=O)Nc1c(OC)c(Cl)cc(F)c1-n1c(=O)cc(C(F)(F)F)n(C)c1=O` , report its Pre-emerge Herbicidal Activity CORN.
80

Using the record for `COc1c(Cl)cc(F)c(-n2c(=O)cc(C(F)(F)F)n(C)c2=O)c1NC(=O)OCc1ccc(C(F)(F)F)cc1` , report its Pre-emerge Herbicidal Activity CORN.
0

***
Using the record for `Cn1c(C(F)(F)F)cc(=O)n(-c2ccc(C(N)=S)cc2NC(=O)c2ccc3ccccc3c2)c1=O` , report its Pre-emerge Herbicidal Activity CORN.
50

Using the record for COc1c(Cl)cc(F)c(-n2c(=O)cc(C(F)(F)F)n(C)c2=O)c1NC(=O)OC(c1ccccc1)C1CC1 (stereo not shown) , report its Pre-emerge Herbicidal Activity CORN.
5
